Assay procedure: Pharmacokinetic study in Wistar rats
Type: in vivo
Test conditions: male, Wistar, rat, in vivo, iv, 10 mg/kg
Assay metric: AUC (ng·h/mL)
# output: bare number, implied unit ng·h/mL

For O=c1[nH]nc(-c2cn(C3CCNCC3)nn2)o1 [compound 5] , write its AUC. 12200

---

Assay procedure: in vivo
Test conditions: male, Beagle, dog, iv, 5 mg/kg
Assay metric: Cmax (ng/mL)
# output: bare number, implied unit ng/mL

For O=c1[nH]nc(-c2cn(C3CCNCC3)nn2)o1 [compound 5] , write its Cmax. 14000

---

Assay procedure: Pharmacokinetic study in Wistar rats
Type: in vivo
Test conditions: female, Wistar, rat, in vivo, iv, 2.5 mg/kg
Assay metric: half-life
Write the quantity with the unit trailing the number.

For O=c1[nH]nc(-c2cn(C3CCNCC3)nn2)o1 [compound 5] , write its half-life. 1.92 h

---

Assay procedure: Pharmacokinetic study in Wistar rats
Format: in vivo
Test conditions: female, Wistar, rat, in vivo, iv, 10 mg/kg
Assay metric: Vd (L/kg)
# output: bare number, implied unit L/kg

For O=c1[nH]nc(-c2cn(C3CCNCC3)nn2)o1 [compound 5] , write its Vd. 2.37

---

Assay procedure: Pharmacokinetic study in Wistar rats
Assay type: in vivo
Test conditions: female, Wistar, rat, in vivo, iv, 2.5 mg/kg
Assay metric: clearance (mL/min/kg)
# output: bare number, implied unit mL/min/kg

For O=c1[nH]nc(-c2cn(C3CCNCC3)nn2)o1 [compound 5] , write its clearance. 11.5

---

Assay procedure: Pharmacokinetic study in Wistar rats
Format: in vivo
Test conditions: female, Wistar, rat, in vivo, iv, 5 mg/kg
Procedure: A pharmacokinetic study was performed for compound 5 in Wistar rats and Beagle dogs. For rats, a total of 35 male and 35 female rats were used for the study. At initiation of the dosing, rats were 9 to 10 weeks old and the body weight variation among rats was within ±20% of the mean body weight for each sex. […] Food and filtered water were provided ad libitum. […] Individual doses were adjusted based on the most recent recorded body weight of each rat. […]
Assay metric: half-life (h)
# output: bare number, implied unit h

For O=c1[nH]nc(-c2cn(C3CCNCC3)nn2)o1 , write its half-life. 1.98

---

Assay procedure: Pharmacokinetic study in Wistar rats
Assay type: in vivo
Test conditions: male, Wistar, rat, in vivo, iv, 2.5 mg/kg
Assay metric: Vd (L/kg)
# output: bare number, implied unit L/kg

For O=c1[nH]nc(-c2cn(C3CCNCC3)nn2)o1 , write its Vd. 2.52

---

Assay procedure: Pharmacokinetic study in Wistar rats
Assay type: in vivo
Test conditions: female, Wistar, rat, in vivo, iv, 5 mg/kg
Description: A pharmacokinetic study was performed for compound 5 in Wistar rats and Beagle dogs. For rats, a total of 35 male and 35 female rats were used for the study. At initiation of the dosing, rats were 9 to 10 weeks old and the body weight variation among rats was within ±20% of the mean body weight for each sex. […] Food and filtered water were provided ad libitum. […] Individual doses were adjusted based on the most recent recorded body weight of each rat. […]
Assay metric: AUC

For O=c1[nH]nc(-c2cn(C3CCNCC3)nn2)o1 , write its AUC. 7040 ng·h/mL

---

Assay procedure: in vivo
Test conditions: both sexes, Wistar, rat, iv
Assay metric: MTD at 14 days (mg/kg)
# output: bare number, implied unit mg/kg

For O=c1[nH]nc(-c2cn(C3CCNCC3)nn2)o1 [compound 5] , write its MTD at 14 days. 300

---

Assay procedure: Pharmacokinetic study in Wistar rats
Format: in vivo
Test conditions: male, Wistar, rat, in vivo, iv, 5 mg/kg
Assay metric: clearance (mL/min/kg)
# output: bare number, implied unit mL/min/kg

For O=c1[nH]nc(-c2cn(C3CCNCC3)nn2)o1 , write its clearance. 12.7

---

Assay procedure: Pharmacokinetic study in Wistar rats
Type: in vivo
Test conditions: female, Wistar, rat, in vivo, iv, 2.5 mg/kg
Assay metric: Tmax (min)
# output: bare number, implied unit min

For O=c1[nH]nc(-c2cn(C3CCNCC3)nn2)o1 [compound 5] , write its Tmax. 4.8

---

Assay procedure: Pharmacokinetic study in Wistar rats
Type: in vivo
Test conditions: female, Wistar, rat, in vivo, iv, 10 mg/kg
Assay metric: AUC

For O=c1[nH]nc(-c2cn(C3CCNCC3)nn2)o1 [compound 5] , write its AUC. 13600 ng·h/mL

---

Assay procedure: Maximum solubility in plasmin assay
Format: physicochemical
Test conditions: Tris HCl buffer (plasmin activity assay solution), pH 7.5
Assay metric: solubility (mM)
# output: bare number, implied unit mM

For O=c1[nH]nc(-c2cn(C3CCNCC3)nn2)o1 , write its solubility. 20

---

Assay procedure: Pharmacokinetic study in Wistar rats
Format: in vivo
Test conditions: male, Wistar, rat, in vivo, iv, 10 mg/kg
Assay metric: half-life (h)
# output: bare number, implied unit h

For O=c1[nH]nc(-c2cn(C3CCNCC3)nn2)o1 , write its half-life. 5.61

---

Assay procedure: Pharmacokinetic study in Wistar rats
Format: in vivo
Test conditions: male, Wistar, rat, in vivo, iv, 10 mg/kg
Assay metric: Tmax (min)
# output: bare number, implied unit min

For O=c1[nH]nc(-c2cn(C3CCNCC3)nn2)o1 , write its Tmax. 4.8

---

Assay procedure: Pharmacokinetic study in Wistar rats
Assay type: in vivo
Test conditions: male, Wistar, rat, in vivo, iv, 2.5 mg/kg
Assay metric: clearance (mL/min/kg)
# output: bare number, implied unit mL/min/kg

For O=c1[nH]nc(-c2cn(C3CCNCC3)nn2)o1 , write its clearance. 12.2

---

Assay procedure: Pharmacokinetic study in Wistar rats
Format: in vivo
Test conditions: female, Wistar, rat, in vivo, iv, 2.5 mg/kg
Assay metric: Vd (L/kg)
# output: bare number, implied unit L/kg

For O=c1[nH]nc(-c2cn(C3CCNCC3)nn2)o1 [compound 5] , write its Vd. 1.91

---

Tgt: plasmin (Homo sapiens, UniProt P00747)
Construct: purchased abcam
Sequence (P00747 97-580 limits assumed): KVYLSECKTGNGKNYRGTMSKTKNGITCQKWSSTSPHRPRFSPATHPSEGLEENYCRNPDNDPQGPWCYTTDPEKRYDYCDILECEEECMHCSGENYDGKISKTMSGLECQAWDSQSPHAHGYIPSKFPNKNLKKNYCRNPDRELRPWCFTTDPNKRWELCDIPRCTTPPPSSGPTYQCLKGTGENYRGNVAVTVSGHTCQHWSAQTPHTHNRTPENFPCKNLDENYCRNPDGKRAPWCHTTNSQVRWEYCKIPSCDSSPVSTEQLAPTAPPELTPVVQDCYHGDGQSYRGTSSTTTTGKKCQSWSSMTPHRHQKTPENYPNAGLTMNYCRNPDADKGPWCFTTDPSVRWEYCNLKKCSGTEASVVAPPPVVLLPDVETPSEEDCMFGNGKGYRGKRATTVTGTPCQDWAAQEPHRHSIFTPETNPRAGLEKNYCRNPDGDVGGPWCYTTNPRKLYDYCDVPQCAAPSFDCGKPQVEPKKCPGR
Sequence (P00747 581-810 limits assumed): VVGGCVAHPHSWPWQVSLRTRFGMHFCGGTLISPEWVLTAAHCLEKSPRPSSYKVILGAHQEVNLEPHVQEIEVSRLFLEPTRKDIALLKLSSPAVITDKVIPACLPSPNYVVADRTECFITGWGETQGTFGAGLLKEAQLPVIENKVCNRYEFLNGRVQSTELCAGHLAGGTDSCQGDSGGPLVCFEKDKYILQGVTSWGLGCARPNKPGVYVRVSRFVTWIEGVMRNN
Assay procedure: Plasmin activity assay (Plasmin Inhibitor Screening Assay Kit)
Assay type: biochemical
Test conditions: inhibition of plasmin's cleavage of a synthetic substrate by 50%
Assay metric: IC50
Write the quantity with the unit trailing the number.

For O=c1[nH]nc(-c2cn(C3CCNCC3)nn2)o1 , write its IC50. 17.9 mM

---

Assay procedure: Pharmacokinetic study in Wistar rats
Assay type: in vivo
Test conditions: female, Wistar, rat, in vivo, iv, 2.5 mg/kg
Assay metric: Cmax (ng/mL)
# output: bare number, implied unit ng/mL

For O=c1[nH]nc(-c2cn(C3CCNCC3)nn2)o1 [compound 5] , write its Cmax. 8660

---

Assay procedure: Pharmacokinetic study in Wistar rats
Type: in vivo
Test conditions: male, Wistar, rat, in vivo, iv, 10 mg/kg
Assay metric: clearance (mL/min/kg)
# output: bare number, implied unit mL/min/kg

For O=c1[nH]nc(-c2cn(C3CCNCC3)nn2)o1 , write its clearance. 13.7

---

Assay procedure: Pharmacokinetic study in Wistar rats
Type: in vivo
Test conditions: male, Wistar, rat, in vivo, iv, 2.5 mg/kg
Assay metric: Tmax (min)
# output: bare number, implied unit min

For O=c1[nH]nc(-c2cn(C3CCNCC3)nn2)o1 [compound 5] , write its Tmax. 4.8

---

Assay procedure: in vivo
Test conditions: female, Beagle, dog, iv, 5 mg/kg
Assay metric: Tmax (min)
# output: bare number, implied unit min

For O=c1[nH]nc(-c2cn(C3CCNCC3)nn2)o1 [compound 5] , write its Tmax. 4.8

---

Assay procedure: Pharmacokinetic study in Wistar rats
Type: in vivo
Test conditions: male, Wistar, rat, in vivo, iv, 5 mg/kg
Assay metric: Tmax (min)
# output: bare number, implied unit min

For O=c1[nH]nc(-c2cn(C3CCNCC3)nn2)o1 [compound 5] , write its Tmax. 4.8

---

Assay procedure: Pharmacokinetic study in Wistar rats
Type: in vivo
Test conditions: male, Wistar, rat, in vivo, iv, 5 mg/kg
Assay metric: Cmax (ng/mL)
# output: bare number, implied unit ng/mL

For O=c1[nH]nc(-c2cn(C3CCNCC3)nn2)o1 , write its Cmax. 15100

---

Assay procedure: Pharmacokinetic study in Wistar rats
Assay type: in vivo
Test conditions: male, Wistar, rat, in vivo, iv, 5 mg/kg
Assay metric: AUC (ng·h/mL)
# output: bare number, implied unit ng·h/mL

For O=c1[nH]nc(-c2cn(C3CCNCC3)nn2)o1 , write its AUC. 6530
